EXPERIMENTAL TARGET: E3 ubiquitin-protein ligase SIAH1 (Homo sapiens) (UniProt Q8IUQ4)
ASSAY SUMMARY: Siah-1 peptide-binding antagonists, alternate label, dose response, artefact control for Siah-1 antagonist project, biochemical, fluorescence polarization, fluorescein-plectin (AID 2127)
EXPERIMENTAL CONDITIONS: Siah-1/fluorescein-plectin binding
Active and inactive are the calls of the source.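 Rule for the calls: active = half-maximal inhibitory concentration below a set limit; inactive = the rest.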
Your response should consist of one outcome taken from active, inactive

Here's what some known entries look like.
• O=C1CCCC(O)=C1N=Nc1ccc(C(=O)O)cc1 = inactive
• COc1ccc(N=C2NC(=O)S/C2=C\c2ccc(N(C)C)cc2)cc1 = inactive
• c1ccc(C(c2ccccc2)N2CCN(C(c3ccccn3)c3nnnn3C3CCCC3)CC2)cc1 (configuration not stated) = inactive

Ask: Hi, do you know how Cc1ccc(NC(=O)CCC(=O)NNC(=O)c2ccccc2[N+](=O)[O-])c(C)c1 came out in this test?
Reply: inactive

Ask: Hi, do you know how O=C(NCc1c(F)cccc1F)c1cc(COc2c(F)cccc2F)on1 came out in this test?
Reply: inactive

Ask: Hi, do you know how CSc1n[nH]c(NCc2ccc(Cl)cc2)n1 came out in this test?
Reply: inactive

Ask: Hi, do you know how CCCCn1c(NS(=O)(=O)c2ccc(C)cc2)c(S(=O)(=O)c2ccccc2)c2nc3ccccc3nc21 came out in this test?
Reply: inactive

Ask: Hi, do you know how Cc1cc(C)n2ncc(C(=O)Nc3ccc4c(c3)OCO4)c2n1 came out in this test?
Reply: inactive

---

EXPERIMENTAL TARGET: UniProt:Q8IUQ4
ASSAY SUMMARY: Siah-1 peptide-binding antagonists, alternate label, dose response, artefact control for Siah-1 antagonist project, biochemical, fluorescence polarization, fluorescein-plectin (AID 2127)
EXPERIMENTAL CONDITIONS: Siah-1/fluorescein-plectin binding
Calls of active or inactive are those of the source.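 The calls were made as follows: active = half-maximal inhibitory concentration below a set limit; inactive = the rest.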
Your response should consist of one outcome taken from active, inactive

Here's what some known entries look like.
* O=C(O)CCCCN1C(=O)/C(=C\c2ccc(OCc3ccccc3)c(OCc3ccccc3)c2)SC1=S | inactive
* CN(Cc1c(C(=O)N/N=C/c2ccc(F)cc2)nnn1-c1nonc1N)C1CCCCC1 | inactive
* NS(=O)(=O)c1ccc(NS(=O)(=O)c2ccc(NC(=O)c3ccc(-c4ccccc4)cc3)cc2)cc1 | inactive
* N#Cc1c(NC(=O)c2ccc(Br)o2)n(-c2ccccc2)c2nc3ccccc3nc12 | inactive
* C=C(C)Cn1c(N2CCN(CC)CC2)nc2c1c(=O)[nH]c(=O)n2C | inactive

Ask: Hi, do you know how CC1=C(C#N)c2nc(N)c(C#N)c(C)c2/C1=C\c1ccc(-c2ccccc2C(=O)O)o1 came out in this test?
Reply: inactive

Ask: Hi, do you know how CCc1nnc(NS(=O)(=O)c2ccc(NC(=S)NC(=O)/C=C/c3ccc(C(C)C)cc3)cc2)s1 came out in this test?
Reply: inactive

Ask: Hi, do you know how COc1cc(/C=C(\C#N)c2nc3ccccc3[nH]2)ccc1OC(=O)c1ccco1 came out in this test?
Reply: inactive

Ask: Hi, do you know how Cc1cc(Cl)ccc1NC(=O)CN1CCC(C(O)(c2ccccc2)c2ccccc2)CC1 came out in this test?
Reply: inactive

Ask: Hi, do you know how Cc1cc(C)nc(N=Nc2c(O)n(Cc3ccc(Cl)cc3)c3ccccc23)n1 came out in this test?
Reply: inactive

Ask: Hi, do you know how O=S(=O)(O)c1cc(O)c2c(O)c(N=Nc3cc(Cl)ccc3O)c(S(=O)(=O)O)cc2c1 came out in this test?
Reply: inactive

Ask: Hi, do you know how O=S(=O)(Nc1nc2ccccc2nc1Nc1ccc(N2CCOCC2)cc1)c1cc(Cl)ccc1Cl came out in this test?
Reply: inactive

Ask: Hi, do you know how O=C(O)c1ccc(/C=N/NC(=O)c2ccc(CN3c4cccc5cccc(c45)S3(=O)=O)cc2)cc1 came out in this test?
Reply: inactive
